Tested on: UACC-62 melanoma
experiment.summary: NCI tumour cell line growth inhibition, 48 h
The following compounds are shown together with reported TGI values.

Recorded results for 3 compounds are shown here.
COC(=O)C(=O)C(C(=O)C(=O)Nc1ccc([N+](=O)[O-])cc1C#N)c1nc2ccc([N+](=O)[O-])cc2[nH]c1=O (stereo not given); > 100 µM
O=C(O/N=C1/CCC/C1=C\c1ccccc1)c1ccc(Cl)cc1; > 100 µM
O=C(O)C1(C(=O)O)CCN(S(=O)(=O)c2ccccc2)CC1; > 100 µM

Now, please, on to the next compound.
Reported TGI, compound COc1ccc(-n2c(C)nc3ccc(N=Cc4ccccc4)cc3c2=O)cc1 : ____
> 100 µM

====

Tested on: SK-MEL-28 melanoma
experiment.summary: NCI tumour cell line growth inhibition, 48 h
observable: TGI

# annotated cases, reported TGI shown
OC(CCN1CCN(CCOC(c2ccc(F)cc2)c2ccc(F)cc2)CC1)c1ccccc1 (configuration not stated); 35.7 µM
COc1cccc(C(=O)O)c1Cc1cccc2ccccc12; > 100 µM
CN1CCN(c2ccc(NC3=C(Cl)C(=O)c4ncccc4C3=O)cc2C(F)(F)F)CC1; 3.45 µM

What is its TGI for SK-MEL-28 melanoma? Entry: O=C(CCNC(=O)OCc1ccccc1)OCCCNC(=O)OCc1ccccc1
> 100 µM

SK-MEL-28 melanoma / TGI / Nc1nc(Cl)cc(NCCCCO)n1 : value?
> 100 µM

Look up TGI with SK-MEL-28 melanoma for this molecule: NC(CCc1nc(-c2ccccc2)cs1)C(=O)O (configuration not stated)
> 100 µM

Value wanted: TGI (SK-MEL-28 melanoma) of entry CN[C@@H]1[C@H](O)[C@H](NC)[C@H]2O[C@@]3(O)C(=O)C[C@@H](C)O[C@H]3O[C@@H]2[C@H]1O
> 100 µM

Quick check: TGI on SK-MEL-28 melanoma, item C/C(=N/NC(=S)Nc1cccc(Cl)c1)c1cccc(/C(C)=N\NC(=S)Nc2cccc(Cl)c2)n1 ?
> 100 µM

// map CNC(=O)OC(C)CN1c2ccccc2Sc2ccccc21 (configuration not stated) to recorded TGI (system: SK-MEL-28 melanoma)
> 100 µM

API: value(readout=TGI, system=SK-MEL-28 melanoma) for record C#Cc1cccc(N2C(=O)CC(=P(c3ccccc3)(c3ccccc3)c3ccccc3)C2=O)c1
> 100 µM

Find TGI (SK-MEL-28 melanoma) for the entry O=c1cc2oc3ccc4ccccc4c3cc-2c(=O)[nH]1
32.7 µM

So what TGI did c1ccc(N=C2SC(c3ccccc3)CN2C23CC4CC(CC(C4)C2)C3)cc1 (configuration not stated) get with SK-MEL-28 melanoma?
> 100 µM

Recorded TGI for COc1ccc(-n2c(C)nc3ccc(N=Cc4ccccc4)cc3c2=O)cc1 with SK-MEL-28 melanoma, please?
> 100 µM

// lookup TGI | system=SK-MEL-28 melanoma | key= COc1ccc(C(F)(F)F)cc1NC(=O)O/N=C(/Cl)C(C)C
48.5 µM

# query: TGI | item CCOC(=O)C1C(=O)CC(C)(O)C(C(=O)OCC)C1c1ccc(O)c(OC)c1 (configuration not stated) | system: SK-MEL-28 melanoma
> 100 µM

# query: TGI | item COc1cc2c3c(n(CCCn4cccn4)c(=O)c2cc1OC)-c1cc2c(cc1C3=O)OCO2 | system: SK-MEL-28 melanoma
> 100 µM

Please provide the recorded TGI for CN1NC(c2ccccc2)=C(C#N)C(=O)CC1c1ccccc1Cl (configuration not stated) , tested on SK-MEL-28 melanoma.
> 100 µM

====

Catalogue of TGI values
Test system: ACHN renal
experiment.summary: NCI tumour cell line growth inhibition, 48 h

CN[C@@H]1[C@H](O)[C@H](NC)[C@H]2O[C@@]3(O)C(=O)C[C@@H](C)O[C@H]3O[C@@H]2[C@H]1O; > 100 µM
COc1ccc2c(CCNS(=O)(=O)c3ccccc3)c(C(C)=O)[nH]c2c1[N+](=O)[O-]; > 100 µM
COc1cc2c(cc1O)CCN[C@@]21CS[C@H]2c3c(OC(C)=O)c(C)c4c(c3C(COC1=O)N1C2C2c3c(cc(C)c(OC)c3O)CC([C@@H]1O)N2C)OCO4 (some centres undefined); 0.0012 µM
COC(=O)c1cc(Cl)ccc1NC(=O)C1CCCCC1; > 100 µM
Cn1c(-c2c(N)n(Cc3ccc(Cl)cc3)c3nc(C#N)c(C#N)nc23)nc2ccccc21; 6.38 µM

What value of TGI has been recorded for this entry: COc1ccccc1NC(=O)N/C(N)=N/c1nc2ccccc2s1
> 100 µM

Can you look up the measured TGI of CO/N=C(\COc1ccc2c(=O)cc(-c3ccccc3)oc2c1)c1ccc(OC)cc1 for me?
> 100 µM

====

Test system: SNB-19 CNS
experiment.summary: NCI tumour cell line growth inhibition, 48 h
The entries below come with measured TGI values attached.

NC(Cc1ccc2oc3cc(=O)c4ccccc4c-3nc2c1)C(=O)O (centres undefined); > 97.7 µM
CC(=O)OC1C(O)COC(Oc2c(C)c3c4c(c2O)[C@@H](C)CC[C@@H]4[C@@H](C)C[C@H]3C=C(C)C)C1O (some centres undefined); 49.6 µM
CNC(=S)N/N=C(\C)c1ccc(OC)cc1O; > 100 µM
CC(=O)C1CC2(c3ccccc3)C(=O)c3ccccc3N2O1 (centres undefined); > 100 µM
COc1ncnc2c1ncn2C/C(Br)=C(\Br)CCl; 24.5 µM

Looking for the measured TGI of COc1ccc(-n2c(C)nc3ccc(N=Cc4ccccc4)cc3c2=O)cc1 , can you help?
> 100 µM

Quick one: TGI of COc1ccc2c3c([nH]c2c1[N+](=O)[O-])C(C)N(C(=O)/C=C/c1ccccc1)CC3 (centres undefined) ?
> 100 µM

Can you share its TGI? I mean this compound: COC(=O)C1=C(O)C(C(=O)OC)[C@@]2(O)[C@@H](C(=O)OC)C(c3ccc(OC(=O)/C(=C/c4ccccc4)c4ccccc4)cc3)C[C@@H]1[C@@H]2C(=O)OC (some centres undefined)
> 100 µM

What does the record list as TGI for CCCCCCCCCCCCCC/C(=C/OCC[N+](C)(C)C)OC(C)=O (tested in a mixture with another compound) ?
3.35 µM

====

compounds and their reported GI50
System: T-47D breast
experiment.summary: NCI tumour cell line growth inhibition, 48 h

CC(C)(C)c1ccc(NC(=O)c2cc(=O)c3ccccc3[nH]2)c(C(C)(C)C)c1O; 7.49 µM
C=C(C)[C@@H]1CC[C@]2(C)[C@H](CC=C3[C@@H]4CC(C)(C)CC[C@]4(C(=O)OC)CC[C@]32C)[C@@]1(C)CC/C(N)=N/O; 2.46 µM
CC(=O)OC1C(O)COC(Oc2c(C)c3c4c(c2O)[C@@H](C)CC[C@@H]4[C@@H](C)C[C@H]3C=C(C)C)C1O (stereo partly specified); 39.4 µM
COc1cc2c3c(n(CCCn4cccn4)c(=O)c2cc1OC)-c1cc2c(cc1C3=O)OCO2; 2.2 µM
CN1CCN(c2ccc3nc(-c4ccc5nc(-c6ccc(C(F)(F)F)cc6)[nH]c5c4)[nH]c3c2)CC1; 1.38 µM

I am curious: what GI50 value has been reported for COc1ccc(-n2nc(C)c3c(Nc4ccc(NC(=O)Nc5cc(C(F)(F)F)ccc5F)cc4)ncnc32)cc1 ?
2.57 µM

====

Test system: HS 578T breast
experiment.summary: NCI tumour cell line growth inhibition, 48 h
observable: TGI

Worked cases, TGI given:
O=C(O)C1(C(=O)O)CCN(S(=O)(=O)c2ccccc2)CC1; > 100 µM
Cc1ccc(-c2n[nH]c(CC#N)n2)cc1; > 100 µM
CO/N=C(\COc1ccc2c(=O)cc(-c3ccccc3)oc2c1)c1ccc(OC)cc1; > 100 µM
O=C(CN1CCOCC1)NC1=Nc2ncccc2C(=O)NN1; > 10 µM
CC(C)NCCCNC1=C(Cl)C(=O)c2ccccc2C1=O; 9.02 µM

Sample c1ccc(N=C2SC(c3ccccc3)CN2C23CC4CC(CC(C4)C2)C3)cc1 (stereo unspecified) — what was its TGI?
> 100 µM

====

Tested on: CCRF-CEM leukemia
experiment.summary: NCI tumour cell line growth inhibition, 48 h
observable: TGI (µM)
Form entry: value (µM) — number only.

Endpoint output: TGI of O=C(Cc1ccccc1)NN1C(=O)C(Cl)C1c1cc(Br)cc(Br)c1O (centres undefined) . Value?
24.1

# TGI lookup, item CC1=CC(=O)c2cccc(O)c2C1=O
14.7

====

Test system: SNB-75 CNS
experiment.summary: NCI tumour cell line growth inhibition, 48 h
observable: TGI

These recorded examples may help you get a feel for the data.
CCOP(=O)(C/C(=N/NC(C)(C)C)C(=O)Nc1nc2ccc(C)cc2s1)OCC; > 100 µM
N#CC1(C#N)C(c2ccccc2)NC23CCCCC2C1(C#N)C(=O)N3 (stereo unspecified); > 100 µM

Tell me reported TGI for COc1cc(C)c(N(C)C(=O)CN(C)C)cc1Nc1nc(Nc2cccc(F)c2C(N)=O)c2cc[nH]c2n1 , tested with SNB-75 CNS.
> 25 µM

API: value(readout=TGI, system=SNB-75 CNS) for record CCCCNC(=O)C1=C(C)NC(C)=C(C(=O)NCCCC)C1
> 100 µM
